Entries and their IC50
Biological target: site on or near the Cl^- channel portion of the GABAA /BDZ/Cl^- channel complex
Experiment: [^35 S]-TBPS binding to rat cerebral cortex membranes in vitro
Conditions: done in the absence of GABA, 2 nM [^35 S]-TBPS, pH 7.1, 25° C.
The reply should contain only the number, in µM.

INSERT INTO assay_data (molecule, parameter, reading_unit, observed_value) VALUES
  ('CCCn1c2ccccc2c2c(N)c3c(nc21)CCCC3=O [Example E6]', 'IC50', 'µM', 3.8),
  ('Cn1c2ccccc2c2c(N)c3c(nc21)CC(C)(C)CC3=O [Example E8]', 'IC50', 'µM', 4.4);

For the next question, use this molecule.
Output IC50 of CCn1c2ccccc2c2c(N)c3c(nc21)CCCC3=O [Example E5]
7.5

====

Molecular target: site on or near the Cl^- channel portion of the GABAA /BDZ/Cl^- channel complex
Test: [^35 S]-TBPS binding to rat cerebral cortex membranes in vitro
Conditions: done in the presence of GABA, 2 nM [^35 S]-TBPS, pH 7.1, 25° C.
Description: [^35 S]-TBPS binding to rat cerebral cortex membranes in vitro [^35 S]-TBPS labels a site on or near the Cl^- channel portion of the GABAA /BDZ/Cl^- channel complex. […] Modulation of [^35 S]-TBPS binding is measured by a method similar to that of Gee et al (1986). […] […] Non-specific binding was measured in the presence of 10^-4 M picrotoxin. […] Incubation was stopped by rapid filtration using a Skatron cell harvester and radioactivity measured by liquid scintillation spectrometry. […]
parameter: pIC50
Quick note: pIC50 means taking -log10 of the concentration in moles per liter.

INSERT INTO assay_data (compound, target_entity, parameter, observed_value) VALUES
  ('C=CCn1c2ccccc2c2c(N)c3c(nc21)CCCC3=O', 'site on or near the Cl^- channel portion of the GABAA /BDZ/Cl^- channel complex', 'pIC50', 5.72),
  ('Cn1c2ccccc2c2c(N)c3c(nc21)CCCCC3=O', 'site on or near the Cl^- channel portion of the GABAA /BDZ/Cl^- channel complex', 'pIC50', 5.48),
  ('CCC1CCc2nc3c(c(N)c2C1=O)c1ccccc1n3C (racemic)', 'site on or near the Cl^- channel portion of the GABAA /BDZ/Cl^- channel complex', 'pIC50', 5.85),
  ('CC1CCc2nc3c(c(N)c2C1=O)c1ccccc1n3C (racemic)', 'site on or near the Cl^- channel portion of the GABAA /BDZ/Cl^- channel complex', 'pIC50', 5.92),
  ('Cn1c2ccccc2c2c(N)c3c(nc21)CCC(C)(C)C3=O', 'site on or near the Cl^- channel portion of the GABAA /BDZ/Cl^- channel complex', 'pIC50', 5.77),
  ('CC1CC(C)c2nc3c(c(N)c2C1=O)c1ccccc1n3C (racemic)', 'site on or near the Cl^- channel portion of the GABAA /BDZ/Cl^- channel complex', 'pIC50', 5.42);

For the next question, use this compound.
Output pIC50 of C#CCC1CCc2nc3c(c(N)c2C1=O)c1ccccc1n3C (racemic)
6.00
